# assay_target: Integrin alpha-V/beta-3 (Homo sapiens, UniProt P05106+P06756)
# Sequence (P05106 27-788 limits assumed): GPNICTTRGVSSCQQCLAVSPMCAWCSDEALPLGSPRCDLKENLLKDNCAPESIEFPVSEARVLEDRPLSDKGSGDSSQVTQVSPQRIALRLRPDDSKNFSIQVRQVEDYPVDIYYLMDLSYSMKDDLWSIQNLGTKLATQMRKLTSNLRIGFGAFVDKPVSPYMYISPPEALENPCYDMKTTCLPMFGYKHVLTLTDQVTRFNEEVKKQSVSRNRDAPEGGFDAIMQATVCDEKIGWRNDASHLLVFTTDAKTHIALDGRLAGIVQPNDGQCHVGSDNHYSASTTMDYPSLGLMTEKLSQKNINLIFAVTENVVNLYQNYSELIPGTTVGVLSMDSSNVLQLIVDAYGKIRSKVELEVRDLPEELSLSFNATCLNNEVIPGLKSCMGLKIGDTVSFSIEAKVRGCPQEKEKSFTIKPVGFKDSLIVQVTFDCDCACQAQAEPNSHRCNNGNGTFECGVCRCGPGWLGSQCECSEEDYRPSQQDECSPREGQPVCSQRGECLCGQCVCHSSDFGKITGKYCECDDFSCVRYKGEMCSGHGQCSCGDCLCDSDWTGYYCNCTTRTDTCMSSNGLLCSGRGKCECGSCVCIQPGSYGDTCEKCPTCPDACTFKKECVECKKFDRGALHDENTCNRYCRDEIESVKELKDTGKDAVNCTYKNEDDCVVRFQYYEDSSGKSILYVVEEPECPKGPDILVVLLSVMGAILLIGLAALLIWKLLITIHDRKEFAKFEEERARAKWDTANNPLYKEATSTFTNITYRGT
# Sequence (P06756 31-889 limits assumed): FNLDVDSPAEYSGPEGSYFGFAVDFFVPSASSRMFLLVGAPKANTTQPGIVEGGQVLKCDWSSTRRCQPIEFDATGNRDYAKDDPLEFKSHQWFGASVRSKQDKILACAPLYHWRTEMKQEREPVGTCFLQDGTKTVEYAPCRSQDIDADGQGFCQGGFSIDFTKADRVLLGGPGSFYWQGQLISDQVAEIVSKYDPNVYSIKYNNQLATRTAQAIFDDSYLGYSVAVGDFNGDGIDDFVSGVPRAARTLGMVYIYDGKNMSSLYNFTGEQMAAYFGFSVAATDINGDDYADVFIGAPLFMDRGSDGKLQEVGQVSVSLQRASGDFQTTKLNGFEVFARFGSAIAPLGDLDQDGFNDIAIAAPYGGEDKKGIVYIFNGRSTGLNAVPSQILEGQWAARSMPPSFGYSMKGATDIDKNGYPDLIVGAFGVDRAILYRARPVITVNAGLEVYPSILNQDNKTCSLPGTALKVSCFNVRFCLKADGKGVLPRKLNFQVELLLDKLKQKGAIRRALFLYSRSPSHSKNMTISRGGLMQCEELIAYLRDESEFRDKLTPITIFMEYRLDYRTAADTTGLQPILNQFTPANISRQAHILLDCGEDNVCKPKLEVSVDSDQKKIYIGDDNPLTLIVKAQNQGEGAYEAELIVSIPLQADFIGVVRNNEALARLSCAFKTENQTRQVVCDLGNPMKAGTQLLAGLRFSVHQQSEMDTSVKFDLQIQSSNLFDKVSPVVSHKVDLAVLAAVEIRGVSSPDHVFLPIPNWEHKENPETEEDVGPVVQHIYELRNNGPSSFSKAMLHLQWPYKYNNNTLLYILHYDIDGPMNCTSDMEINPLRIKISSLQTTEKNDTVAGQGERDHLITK
# Sequence (P06756 891-1048 limits assumed): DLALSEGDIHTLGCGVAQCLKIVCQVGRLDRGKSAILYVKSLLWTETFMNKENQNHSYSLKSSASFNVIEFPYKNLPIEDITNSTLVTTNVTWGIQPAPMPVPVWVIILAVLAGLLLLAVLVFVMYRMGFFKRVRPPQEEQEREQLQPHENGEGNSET
# method_notes: Binding affinity to integrin alpha-v-beta-3 receptor by solid phase binding assay
pIC50: −log10 of the molar value.
property: pIC50

Notebook entry, Integrin alpha-V/beta-3 (Homo sapiens, UniProt P05106+P06756) assay: pIC50 of CC(C)C[C@H]1C(=O)NCC(=O)N(C)[C@@H](CCCNC(=N)N)C(=O)NCC(=O)N[C@@H](CC(=O)O)C(=O)N[C@H](Cc2ccccc2)C(=O)N1C = ?
5.89

What pIC50 appears in the records for this compound with Integrin alpha-V/beta-3 (Homo sapiens, UniProt P05106+P06756)? CC(C)C[C@@H]1NC(=O)[C@@H](Cc2ccccc2)NC(=O)[C@H](CC(=O)O)NC(=O)CNC(=O)[C@H](CCCN=C(N)N)N(C)C(=O)CNC1=O
6.11

Entry CC(C)C[C@H]1C(=O)NCC(=O)N[C@@H](CCCN=C(N)N)C(=O)NCC(=O)N[C@@H](CC(=O)O)C(=O)N(C)[C@H](Cc2ccccc2)C(=O)N1C , system Integrin alpha-V/beta-3 (Homo sapiens, UniProt P05106+P06756): what pIC50 was measured?
5.92
